meta.source: patent US7906510B2

molecular target: 5-HT4 receptor (Cavia porcellus, UniProt O70528); construct: the mixture was suspended to give receptor membrane preparations; from tissue; host or cells: guinea pig (Slc-Hartley) brain striatum membranes; test: Serotonin 4 (5-HT4) receptor binding assay; design: species or system guinea pig; settings: inhibition of specific binding of 0.1 nM [3H]-GR113808; guinea pig striatum membrane preparations; 37° C., 30 minutes; read-out: IC50
Sequence (O70528 whole entry): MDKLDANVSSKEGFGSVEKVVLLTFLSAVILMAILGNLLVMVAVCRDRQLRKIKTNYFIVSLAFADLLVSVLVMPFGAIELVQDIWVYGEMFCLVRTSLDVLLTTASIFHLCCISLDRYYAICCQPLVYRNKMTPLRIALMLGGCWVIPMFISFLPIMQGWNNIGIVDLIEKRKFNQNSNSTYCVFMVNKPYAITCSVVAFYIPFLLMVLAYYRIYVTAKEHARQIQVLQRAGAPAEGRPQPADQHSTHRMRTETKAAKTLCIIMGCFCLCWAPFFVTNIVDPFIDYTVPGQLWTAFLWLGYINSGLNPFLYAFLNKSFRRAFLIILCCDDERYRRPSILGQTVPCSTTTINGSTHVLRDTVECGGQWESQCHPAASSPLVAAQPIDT
assay metric: IC50 (nM)
I only need the number, in nM, no unit after it.

Challenge: Query: IC50; subject: COc1cc(N)c(Cl)cc1C(=O)NC[C@H]1CN(CC2CCN(C(=O)Nc3ccc(Cl)c(Cl)c3)CC2)CCO1 [Example 58]
Response given: 1.97

Challenge: Ok, now COc1cc(N)c(Cl)cc1C(=O)NC[C@H]1CN(CC2CCN(C(=O)Nc3ccccc3)CC2)CCO1 [Example 52]
Response given: 1.94

Challenge: Ok, now COC(=O)c1ccc(C(=O)N2CCC(CN3CCO[C@@H](CNC(=O)c4cc(Cl)c(N)cc4OC)C3)CC2)cc1 [Example 174]
Response given: 8.52

Challenge: Ok, now COc1cc(N)c(Cl)cc1C(=O)NC[C@H]1CN(CC2CCN(C(=O)c3ccccc3Oc3ccccc3)CC2)CCO1 [Example 170]
Response given: 5.65

Challenge: Ok, now COc1cc(N)c(Cl)cc1C(=O)NC[C@H]1CN(CC2CCN(C(=O)c3cccc(N(C)C)c3)CC2)CCO1 [Example 171]
Response given: 2.16

Challenge: Ok, now COc1cc(N)c(Cl)cc1C(=O)NC[C@H]1CN(CC2CCN(C(=O)CNC(=O)c3ccccc3)CC2)CCO1 [Example 222]
Response given: 17.2

Challenge: Ok, now COc1cc(N)c(Cl)cc1C(=O)NC[C@H]1CN(CC2CCN(C(=O)CC#N)CC2)CCO1 [Example 223]
Response given: 18.6
